target.desc: T1, African green monkey PVR (CD 155) on Vero cells (African green monkey)
T1 construct: whole, on cells
measurement.notes: cell binding on Vero cells
measured.metric: EC50 (µg/mL)
Just the number please, in µg/mL, no unit attached.

VH4 N54S D56G / VK3 N92Q (antibody, V domains shown, Humanized variant of Ab825; also called antibody (ix); Sample 4) VH: EVQLVQSGSELKKPGASVKVSCKTSGYTFTEYTMHWVRQPHGKGLEWIGGIHPNSGGTSYNQRFKGRVTITVDKSTSTAYMELSSLRSEDTAVYYCARWTGDFDYWGQGTLVTVSS VL: DIQMTQSPSAMSASVGDRVTITCKASQNVGTNVAWYQQKPGQPPKALIYSASYRYSGVPDRFSGSGSGTDFTLTISSLQAEDLAEYFCQQYQSYPYTFGQGTKLEIK :: 0.0869

INPUT: Which value of EC50 has been reported for VH4 N54S D56E / VK3 N92E (antibody, V domains shown, Humanized variant of Ab825; also called antibody (vi)) VH: EVQLVQSGSELKKPGASVKVSCKTSGYTFTEYTMHWVRQPHGKGLEWIGGIHPNSGETSYNQRFKGRVTITVDKSTSTAYMELSSLRSEDTAVYYCARWTGDFDYWGQGTLVTVSS VL: DIQMTQSPSAMSASVGDRVTITCKASQNVGTNVAWYQQKPGQPPKALIYSASYRYSGVPDRFSGSGSGTDFTLTISSLQAEDLAEYFCQQYESYPYTFGQGTKLEIK in the records?
OUTPUT: 0.236

INPUT: Returns the measured EC50 for the input binder. Input: VH4 N54Q D56E / VK3 N92E (antibody, V domains shown, Humanized variant of Ab825; also called antibody (v)) VH: EVQLVQSGSELKKPGASVKVSCKTSGYTFTEYTMHWVRQPHGKGLEWIGGIHPNQGETSYNQRFKGRVTITVDKSTSTAYMELSSLRSEDTAVYYCARWTGDFDYWGQGTLVTVSS VL: DIQMTQSPSAMSASVGDRVTITCKASQNVGTNVAWYQQKPGQPPKALIYSASYRYSGVPDRFSGSGSGTDFTLTISSLQAEDLAEYFCQQYESYPYTFGQGTKLEIK
OUTPUT: 0.629

INPUT: Given the binder VH3 N54Q D56E / VK2 N92E (antibody, V domains shown, Humanized variant of Ab825; also called antibody (i)) VH: EVQLVQSGSELKKPGASVKISCKTSGYTFTEYTMHWVRQPHGKGLEWIGGIHPNQGETSYNQRFKGRVTLTVDKSTSTAYMELSSLRSEDTAVYYCARWTGDFDYWGQGTLVTVSS VL: DIVMTQSPSAMSASVGDRVTITCKASQNVGTNVAWYQQKPGQPPKALIYSASYRYSGVPDRFTGSGSGTDFTLTISSLQAEDLAEYFCQQYESYPYTFGQGTKLEIK , what is its reported EC50?
OUTPUT: 0.226

INPUT: Quick one: EC50 of VH4 N54Q D56E / VK3 N92Q (antibody, V domains shown, Humanized variant of Ab825; also called antibody (viii)) VH: EVQLVQSGSELKKPGASVKVSCKTSGYTFTEYTMHWVRQPHGKGLEWIGGIHPNQGETSYNQRFKGRVTITVDKSTSTAYMELSSLRSEDTAVYYCARWTGDFDYWGQGTLVTVSS VL: DIQMTQSPSAMSASVGDRVTITCKASQNVGTNVAWYQQKPGQPPKALIYSASYRYSGVPDRFSGSGSGTDFTLTISSLQAEDLAEYFCQQYQSYPYTFGQGTKLEIK ?
OUTPUT: 0.48

INPUT: Field request: EC50 | item: VH3 N54S D56G / VK2 N92Q (antibody, V domains shown, Humanized variant of Ab825; also called antibody (ii); Sample 2) VH: EVQLVQSGSELKKPGASVKISCKTSGYTFTEYTMHWVRQPHGKGLEWIGGIHPNSGGTSYNQRFKGRVTLTVDKSTSTAYMELSSLRSEDTAVYYCARWTGDFDYWGQGTLVTVSS VL: DIVMTQSPSAMSASVGDRVTITCKASQNVGTNVAWYQQKPGQPPKALIYSASYRYSGVPDRFTGSGSGTDFTLTISSLQAEDLAEYFCQQYQSYPYTFGQGTKLEIK
OUTPUT: 0.0615

INPUT: Please report the recorded EC50 for VH4 N54S D56G / VK3 N92E (antibody, V domains shown, Humanized variant of Ab825; also called antibody (vii)) VH: EVQLVQSGSELKKPGASVKVSCKTSGYTFTEYTMHWVRQPHGKGLEWIGGIHPNSGGTSYNQRFKGRVTITVDKSTSTAYMELSSLRSEDTAVYYCARWTGDFDYWGQGTLVTVSS VL: DIQMTQSPSAMSASVGDRVTITCKASQNVGTNVAWYQQKPGQPPKALIYSASYRYSGVPDRFSGSGSGTDFTLTISSLQAEDLAEYFCQQYESYPYTFGQGTKLEIK .
OUTPUT: 0.108
